Assay: folding stability dG unfold from trypsin proteolysis; higher = more stable
quantity name: folding stability dG unfold
Returns: string containing the numeric result and its unit.

Illustrative cases are given below, each with its answer.
| sequence | folding stability dG unfold |
| --- | --- |
| SAGMLNIPVDTPEKLLEIVKKLPGPVVVRSTSGTTVTVASLEELKEIAERGVPVELLLPEELPAEERAASAG [r5_677_JUSTAS] | 0.0824 kcal/mol |
| KIEIKVHPDGTLLIKAPLELIDLLIKLLKEKGYDAKILKIDPENGYVLIPVKPKPPPIPKPTPEELLKALFS [r1_78_TrMRF] | 2.29 kcal/mol |
| SAGGSAGGDRIKIRFPDYRYEIEIPPGIESITTIQFHKDGWFTLTIPGNGQQIKIPIPPPDDDPSAGGSAGG [r6_370_TrROS] | 1.23 kcal/mol |
| SAMKVEIVEVKKNEDGSEEITIKIVVPDDKDMTPEELAALLKKEFGVDEVKVEVVDENGYKVITITIKRSAG [r14_228_TrROS_Hall] | 4.03 kcal/mol |

// query Requested field: folding stability dG unfold. Item: SAGGSAGGSSMTFEVVEIERPPGDEIRVLVKREDGREFAEITLPPGASPEEIERAVREAVEAESAGGSAGGS [r12_798_JUSTAS]
// result 0.707 kcal/mol

====

Experiment: folding stability dG unfold (combined trypsin and chymotrypsin); higher = more stable
folding stability dG unfold values for the sequences below.

Worked cases, folding stability dG unfold given:
| sequence | recorded measurement |
| --- | --- |
| SAGGSAGGSAGGGESAAPVVATTVSEEVFEEPGGTVIRRYTVTTPAATTTLSTEVLPPLLSAGGSAGGSAGG [r7_43_JUSTAS] | < -1 kcal/mol |
| SAGGEVKPGEEVEVEVLVLVRGEDGELYLVRVKMRFRVKEDGTVEMEVEVEVVRVPLSEEELKALLEASAGG [r13_544_TrROS_Hall] | > 6 kcal/mol |
| SAGGSAGGSAGEFEIIIPPGVAEERPELLEEIRDRFKPLGLEVEVEYIPGEGYVRVKVKGSAGGSAGGSAGG [r11_357_TrMRF] | 1.55 kcal/mol |
| SAGGSAGGSAMPIKYLFPKDKSLEDILDEIIKKTGKPKSEIKNIKLEEIDDEEGFYVAYVESAGGSAGGSAG [r3_26_TrMRF] | 1.36 kcal/mol |
| SAGGSAGGDEKAKEELKKKKPPKIELTVKVEVEVSEDGTVKVKAKVFGPDGKLIAEAEFTFKVKSAGGSAGG [r6_419_TrROS_Hall] | 2.58 kcal/mol |
| SPRIKIDIPFFNANGHPQEVEIEYSPTDGMLMIKFPRNGYYIMIQIKRIEWEDGKLEIELDIFIMPPGDFSA [r9_587_TrROS] | 4.17 kcal/mol |

Note: attention shifts to another entry.
// query Please give the measured folding stability dG unfold for this sequence: SAGGEKITAEELVEEIQKIFNENGMKPVAIEPMPDGGVFIHFKNPYMIMIDAEEGKIEIMPPEDMEDFSAGG [r13_717_TrROS]
// result 1.09 kcal/mol

====

Test: folding stability dG unfold (combined trypsin and chymotrypsin); higher = more stable
quantity name: folding stability dG unfold (kcal/mol)
Numbers only; they are read as kcal/mol.

| sequence | quantity name | recorded measurement |
| --- | --- | --- |
| SAGGSAGGSAGGGMESKTTVTEEFSPEEVKTVTTVTTYPDGSVTETPENVKVPPGALAGSAGGSAGGSAGGS [r10_280_JUSTAS] | folding stability dG unfold | 1.49 |
| SAGGSAGGSAGPIIPPNFEVVDVFETETSYYILVKNPETGRYYVARYDPLTGKIEVFEVSSAGGSAGGSAGG [r11_896_TrMRF] | folding stability dG unfold | 4.52 |
| SAGGSAGGSKEKKTVILRIKIYVKNENGELIEEIEIPLKDLTLEELKELAKKLNVKVEIELLPSAGGSAGGS [r12_398_TrROS_Hall] | folding stability dG unfold | 3.05 |
| SAGGRIEVRPLEGSGAVLVRILDPELRKKLEEKFPDVTEILFPVEGAEDIPLEELRDRAIKEIEELIDSAGG [r19_298_TrMRF] | folding stability dG unfold | 0.956 |
| SAGGSMTIVVETPEEVEKAIKALEDELKKKGIKKGDKIKKIKVEKNENGKLTVTIEVDGKKIKIEVSAGGSA [r2_120_TrROS_Hall] | folding stability dG unfold | 1.63 |
| SASESAVVEEEYTIDVTTVTPPGTPTTEPVRLTITRLPPNTVEVTLTAPDGKTVETRVIPLSVSLEELLSAG [r14_559_JUSTAS] | folding stability dG unfold | 0.493 |

Now consider the entry below.
// query What value of folding stability dG unfold has been recorded for this entry: SAGGSAGGSAGMKKNEKLITELTFEGPDVYVKITIEKTFDPEGNKIYFKAKIEVFAPGELSAGGSAGGSAGG [r11_237_TrMRF]
// result 3.67
